Exercise: for every item that follows, state its recorded pIC50.
- Species on record: Mus musculus
- Experiment Summary: Compound was tested on P388D1 macrophage-like cell line (PGE2 production) for inhibition of the GIVA PLA2 in the long-term lipopolysaccharide
- Assay type: functional, organism-based
Bear in mind: pIC50 is minus log10 of a mol/L concentration; give just that figure.

What value of measured pIC50 is listed for CCCCCCCCCCCCCC(=O)C(=O)N[C@H](CCC(=O)O)CC(C)C ?
5.00

Would you kindly share the measured pIC50 for CCCCCCCCCCC(=O)C(=O)N[C@@H](CCCC)CCC(=O)O ?
5.24

====

Can you tell me X1(50) for the items I'm about to list?
- Measured On: Cytosolic phospholipase A2 (Homo sapiens)
- Experiment Summary: Mole fraction of compound in the total substrate interface required to inhibit human GIVA PLA2 by 50%
Number, no unit, nothing else.

Hi! What's the reported X1(50) for CCCCCCCCCCOC[C@@H](CCC(=O)O)NC(=O)C(=O)CCCCCCCCCC on Cytosolic phospholipase A2 (Homo sapiens)?
0.047

Param readout= X1(50); system= Cytosolic phospholipase A2 (Homo sapiens); entry= CCCCCCCCCCCCCC(=O)C(=O)N[C@H](CCC(=O)O)CC(C)C ; returns value.
0.017

Reported X1(50) for Cytosolic phospholipase A2 (Homo sapiens), given CCCCCCCCCCC(=O)C(=O)N[C@@H](CCCC)CCC(=O)O ?
0.009

What value of X1(50) on Cytosolic phospholipase A2 (Homo sapiens) does CCCCCCCCCCCCCCC(=O)C(=O)NCCCC(=O)O have?
0.017
